assay: Intrinsic clearance in human liver microsome; format: ADME; settings: liver microsomes
Quantity Kind: microsomal CLint (µL/min/mg)
Entry rule: numbers only, all in µL/min/mg.

// sample O=C1CCOc2nc(C#Cc3ccccc3)ccc21 , its microsomal CLint was 120

----------
test: Chemical stability of the compound assessed as half life at pH 10; format: physicochemical; settings: buffer
Quantity Kind: half-life (h)
Entry rule: numbers only, all in h.

// sample O=C1CCOc2nc(C#Cc3ccccc3)ccc21 , its half-life was 24

----------
test: Intrinsic clearance in rat liver microsome; format: ADME; settings: liver microsomes
Quantity Kind: microsomal CLint (µL/min/mg)
Entry rule: numbers only, all in µL/min/mg.

// sample O=C1CCOc2nc(C#Cc3ccccc3)ccc21 , its microsomal CLint was 95
